All figures here come from paper PMC5540273.

Test system: PAK6;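 note: KINOMEscan kinase panel screen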
Conditions: concentration: 1 μM, replicates: in singlicate; n = 1
For each of the compounds below, state its %Inh.
Record the result as a number with its unit.

[in] Given the entry Cn1c(=O)c(F)c(Nc2ccc(I)cc2F)c2c(=O)n(OC[C@H](O)CO)cnc21 , report its measured %Inh.
[out] 20%

[in] Sample COc1ccc(-c2cc3c(C)nc(N)nc3n([C@H]3CC[C@H](O)CC3)c2=O)cn1 — what was its %Inh?
[out] 0%

[in] What %Inh value was documented for this compound, CCS(=O)(=O)c1ccc(OC)c(Nc2ncc(-c3ccc(F)cc3)o2)c1.Cl ?
[out] 0%
